// reported pIC50 per item
- measured-target: Mast/stem cell growth factor receptor Kit (Homo sapiens, UniProt P10721)
- Sequence (P10721 whole entry): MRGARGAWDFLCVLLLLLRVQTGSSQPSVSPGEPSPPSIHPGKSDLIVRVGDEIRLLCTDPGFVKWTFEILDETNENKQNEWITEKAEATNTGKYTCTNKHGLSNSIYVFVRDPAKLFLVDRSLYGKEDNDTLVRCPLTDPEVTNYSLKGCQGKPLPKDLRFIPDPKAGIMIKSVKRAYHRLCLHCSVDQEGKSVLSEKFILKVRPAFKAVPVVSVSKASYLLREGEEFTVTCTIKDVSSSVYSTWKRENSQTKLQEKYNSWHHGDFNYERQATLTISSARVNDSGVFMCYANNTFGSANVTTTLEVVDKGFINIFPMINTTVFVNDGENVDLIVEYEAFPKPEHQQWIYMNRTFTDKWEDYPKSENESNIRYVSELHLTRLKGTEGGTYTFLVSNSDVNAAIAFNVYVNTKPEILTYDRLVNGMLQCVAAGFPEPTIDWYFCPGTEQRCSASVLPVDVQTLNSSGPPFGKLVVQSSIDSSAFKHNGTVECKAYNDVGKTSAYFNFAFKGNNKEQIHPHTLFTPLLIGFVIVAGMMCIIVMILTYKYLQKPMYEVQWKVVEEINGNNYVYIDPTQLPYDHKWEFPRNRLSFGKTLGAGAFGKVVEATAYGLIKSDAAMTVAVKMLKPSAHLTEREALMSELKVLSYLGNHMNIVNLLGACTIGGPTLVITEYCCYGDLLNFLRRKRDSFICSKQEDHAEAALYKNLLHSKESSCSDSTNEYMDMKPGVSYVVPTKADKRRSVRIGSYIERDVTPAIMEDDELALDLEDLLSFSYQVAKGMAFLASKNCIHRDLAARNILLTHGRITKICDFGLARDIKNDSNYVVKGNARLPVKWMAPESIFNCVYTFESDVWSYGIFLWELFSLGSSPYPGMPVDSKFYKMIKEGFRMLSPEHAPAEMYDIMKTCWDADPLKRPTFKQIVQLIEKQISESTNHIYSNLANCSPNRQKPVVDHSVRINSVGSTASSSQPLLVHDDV
- measurement-description: Inhibition of recombinant c-Kit (unknown origin) incubated for 1 hr by ADP-Glo assay
# pIC50 is unitless: minus log10 of the molar concentration; print number only

> print(dat)
                                   compound                           measured.target  recorded.result
1  CC(C)COC(=O)N1CCN(C(=O)C=CC(=O)Nc2ccc(Cl)cc2)CC1  Mast/stem cell growth factor receptor Kit (Homo sapiens, UniProt P10721)             7.68

Next, consider the following compound.
Ask: Which value of pIC50 has been reported for CC(OC(=O)c1ccc2nc(N)sc2c1)C(=O)Nc1ccc(C(C)(C)C)cc1 (configuration not stated) in the records?
Result: 8.05
